- Read-out: Basic fibroblast growth factor (bFGF), FGF2 (gene 2247)
- Assay Method Text: BSK_MyoF_bFGF: BioMAP Diversity Plus: MyoF Assay for Basic fibroblast growth factor (bFGF) Biomarker Activity (AID 2284246)
- Measurement Conditions: primary human lung fibroblasts
The source made the active and inactive calls. Rule for the calls: active = hit-call score of the fitted dose curve at least 0.9, where 1 is the maximum; inactive = score below 0.9.
// allowed return values: yes (1) for active, no (0) for inactive

Ask: Record lookup: outcome of this test for `O=C1CCCCCCCCCCCCCCO1` ?
Result: no (0)

Ask: Record lookup: outcome of this test for `C#C[C@]1(O)CC[C@H]2[C@@H]3CCC4=Cc5oncc5C[C@]4(C)[C@H]3CC[C@@]21C` ?
Result: yes (1)

Ask: Record lookup: outcome of this test for CN(CCOc1ccc(CC2SC(=O)NC2=O)cc1)c1ccccn1 (stereo not drawn) ?
Result: no (0)

Ask: Record lookup: outcome of this test for `N#Cc1ccc(CC(=NNC(=O)Nc2ccc(OC(F)(F)F)cc2)c2cccc(C(F)(F)F)c2)cc1` ?
Result: no (0)

Ask: Record lookup: outcome of this test for `CC(C)(COC(=O)c1ccccc1)COC(=O)c1ccccc1` ?
Result: no (0)

Ask: Record lookup: outcome of this test for `O=C1OC2(c3cc(Br)c(O)c(Br)c3Oc3c2cc(Br)c(O)c3Br)c2c(Cl)c(Cl)c(Cl)c(Cl)c21` ?
Result: yes (1)

Ask: Record lookup: outcome of this test for `CCCCCCCCCC=O` ?
Result: no (0)

Ask: Record lookup: outcome of this test for CCCCC(CC)COC(=O)/C=C\C(=O)OCC(CC)CCCC (stereo not drawn) ?
Result: no (0)

Ask: Record lookup: outcome of this test for `c1ccc2sc(SN(C3CCCCC3)C3CCCCC3)nc2c1` ?
Result: no (0)

Ask: Record lookup: outcome of this test for `CC(=O)/C=C/C1=C(C)CCCC1(C)C` ?
Result: no (0)

Ask: Record lookup: outcome of this test for `Cc1ccc(O)c(C(C)(C)C)c1` ?
Result: yes (1)

Ask: Record lookup: outcome of this test for `CCCCC/C=C/C=C/C=O` ?
Result: yes (1)

Ask: Record lookup: outcome of this test for CCCCC(CC)COCCC#N (stereo not drawn) ?
Result: no (0)

* * *

- Assay Method Text: ATG_NF_kB_CIS: Attagene CIS-FACTORIAL HepG2 Assay for human Nuclear Factor Kappa B (NF-kB) (AID 2282991)
- Measurement Conditions: HepG2 Attagene cis-factorial NF-kB reporter mRNA; actives raise or lower the signal
Activity calls are given as the source filed them. How the source made its calls: active means hit-call score of the fitted dose curve at least 0.9, where 1 is the maximum; inactive means score below 0.9.
// allowed return values: label 1 for active, label 0 for inactive

Ask: Record lookup: outcome of this test for `C#C[C@]1(O)CC[C@H]2[C@@H]3CCC4=Cc5oncc5C[C@]4(C)[C@H]3CC[C@@]21C` ?
Result: label 0

* * *

- Assay Method Text: ATG_MRE_CIS: Attagene CIS-FACTORIAL HepG2 Assay for human Metal Responsive Element (MRE) (AID 2282954)
- Measurement Conditions: HepG2 MRE cis-reporter transcription, Attagene multiplex; actives raise or lower the signal
The source made the active and inactive calls. The calls were made as follows: active = hit-call score of the fitted dose curve at least 0.9, where 1 is the maximum; inactive = score below 0.9.
// allowed return values: yes = active, no = inactive

[[record]]
compound = "CNC[C@H](O)c1cccc(O)c1"
discrete_label = "no"

[[record]]
compound = "Cc1c(Cl)c(=O)oc2cc(O)ccc12"
discrete_label = "no"

[[record]]
compound = "CCCc1c(OCCCOc2ccc(OCC(=O)O)cc2)ccc(C(C)=O)c1O"
discrete_label = "yes"

[[record]]
compound = "CCCCCCCCCCCCCOS(=O)(=O)O"
discrete_label = "no"


Ask: Record lookup: outcome of this test for `CC1(C)[C@@H]2CC[C@@]1(C)[C@H](O)C2` ?
Result: no

Ask: Record lookup: outcome of this test for `Cc1ccccc1C=O` ?
Result: no

Ask: Record lookup: outcome of this test for `CCOC(=S)SSC(=S)OCC` ?
Result: no

* * *

- Read-out: urokinase plasminogen activator (uPA), PLAU (gene 5328)
- Assay Method Text: BSK_BE3C_uPA: BioMAP Diversity Plus: BE3C Assay for urokinase plasminogen activator (uPA) Biomarker Activity (AID 2283038)
- Measurement Conditions: primary human bronchial epithelial cells; actives raise or lower the signal
Calls of active or inactive are those of the source. Rule for the calls: active = hit-call score of the fitted dose curve at least 0.9, where 1 is the maximum; inactive = score below 0.9.
// allowed return values: label 1 (active), label 0 (inactive)

Please review the following examples before continuing.
[[record]]
compound = "O=C1CCCCCCCCCCCCCCO1"
discrete_label = "label 1"

[[record]]
compound = "CC1CCC(C(C)CS)CC1S (stereo not drawn)"
discrete_label = "label 0"


Ask: Record lookup: outcome of this test for `O=C(O)c1ccc([N+](=O)[O-])cc1` ?
Result: label 0

Ask: Record lookup: outcome of this test for `O=C1OC2(c3cc(Br)c(O)c(Br)c3Oc3c2cc(Br)c(O)c3Br)c2c(Cl)c(Cl)c(Cl)c(Cl)c21` ?
Result: label 1

* * *

- Assay Method Text: ATG_CMV_CIS: Attagene CIS-FACTORIAL HepG2 Assay for human CMV (Internal Marker) (AID 2282928);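 note: endpoint acts as a background internal control marker rather than a target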
- Measurement Conditions: HepG2 CMV promoter reporter, transcription factor profiling; actives raise or lower the signal
Calls of active or inactive are those of the source. How the source made its calls: active means hit-call score of the fitted dose curve at least 0.9, where 1 is the maximum; inactive means score below 0.9.
Property: AC50

Please review the entries below; each comes with its answer.
[[record]]
molecule = "Clc1ccc(Cl)c(Cl)c1Cl"
property = "AC50"
reported_value = "inactive"

[[record]]
molecule = "Cc1ccc(O)c(C(C)(C)C)c1"
property = "AC50"
reported_value = "inactive"

[[record]]
molecule = "CC(CCO)CCCC(C)(C)O (stereo unspecified)"
property = "AC50"
reported_value = "inactive"

[[record]]
molecule = "C=CCOC(=O)CCC1CCCCC1"
property = "AC50"
reported_value = "inactive"

[[record]]
molecule = "CC(=O)C=CC1=C(C)CCCC1(C)C"
property = "AC50"
reported_value = "inactive"

[[record]]
molecule = "CCCCO"
property = "AC50"
reported_value = "inactive"

[[record]]
molecule = "O=C[C@H](O)[C@H](O)[C@H](O)CO"
property = "AC50"
reported_value = "inactive"

[[record]]
molecule = "CCCCCCOC(=O)CC"
property = "AC50"
reported_value = "inactive"

[[record]]
molecule = "O=C=NC1CCC(CC2CCC(N=C=O)CC2)CC1 (stereo unspecified)"
property = "AC50"
reported_value = "64.8 µM (active)"

[[record]]
molecule = "CCCCCCCCCCCCSC"
property = "AC50"
reported_value = "100 µM (active)"


Ask: Quick one: give measured AC50 for `COC(=O)OC`
Result: inactive

* * *

- System: Estrogen receptor (Homo sapiens) (UniProt P03372)
- Sequence (P03372 whole entry, looked up): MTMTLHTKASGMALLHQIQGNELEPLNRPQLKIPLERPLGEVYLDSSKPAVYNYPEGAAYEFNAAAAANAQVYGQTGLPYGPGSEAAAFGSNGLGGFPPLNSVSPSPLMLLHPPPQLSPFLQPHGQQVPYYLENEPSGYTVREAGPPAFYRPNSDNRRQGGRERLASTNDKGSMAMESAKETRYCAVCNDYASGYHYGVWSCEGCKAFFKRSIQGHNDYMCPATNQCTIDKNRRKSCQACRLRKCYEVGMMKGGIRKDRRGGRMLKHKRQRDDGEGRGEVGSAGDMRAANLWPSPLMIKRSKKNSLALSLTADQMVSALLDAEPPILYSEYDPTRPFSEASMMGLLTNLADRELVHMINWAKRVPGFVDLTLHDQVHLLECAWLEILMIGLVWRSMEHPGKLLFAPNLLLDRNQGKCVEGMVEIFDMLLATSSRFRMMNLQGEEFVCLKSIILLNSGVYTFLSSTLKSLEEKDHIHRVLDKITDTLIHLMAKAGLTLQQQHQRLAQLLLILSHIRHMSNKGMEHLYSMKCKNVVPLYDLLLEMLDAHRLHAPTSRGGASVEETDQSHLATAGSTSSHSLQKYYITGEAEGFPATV
- Assay Method Text: ATG_ERa_TRANS: Attagene TRANS-FACTORIAL HepG2 Assay for human Estrogen Receptor alpha (ERa) (AID 2282970)
- Measurement Conditions: HepG2 Attagene TRANS ERa GAL4 reporter, mRNA
Records with an inconclusive call do not appear. Calls of active or inactive are those of the source. Rule for the calls: active = hit-call score of the fitted dose curve at least 0.9, where 1 is the maximum; inconclusive = response in the unintended direction; inactive = score below 0.9.
// allowed return values: yes (1) = active, no (0) = inactive

Please review the following examples before continuing.
[[record]]
compound = "BrC1CCC(Br)C(Br)CCC(Br)C(Br)CCC1Br (stereo not drawn)"
discrete_label = "no (0)"

[[record]]
compound = "CC(C)(C)NC(N)=O"
discrete_label = "no (0)"

[[record]]
compound = "OCc1cccnc1"
discrete_label = "no (0)"


Ask: Record lookup: outcome of this test for `O=S(=O)(O)c1ccc(O)c2ncccc12` ?
Result: no (0)

Ask: Record lookup: outcome of this test for `Nc1cc(Cl)c(O)c(Cl)c1` ?
Result: no (0)

* * *

- System: Hypoxia-inducible factor 1-alpha (Homo sapiens)
- Assay Method Text: ATG_HIF1a_CIS: Attagene CIS-FACTORIAL HepG2 Assay for human Hypoxia Inducible Factor 1 (HIF1A) (AID 2282951)
- Measurement Conditions: HepG2 Attagene cis-factorial HIF1a reporter transcription; actives raise or lower the signal
Calls of active or inactive are those of the source. The calls were made as follows: active = hit-call score of the fitted dose curve at least 0.9, where 1 is the maximum; inactive = score below 0.9.
// allowed return values: y for active, n for inactive

Please review the following examples before continuing.
[[record]]
compound = "NCCCCCCN"
discrete_label = "n"

[[record]]
compound = "CCCC(=O)OCCC(C)CCC=C(C)C (centres undefined)"
discrete_label = "n"


Ask: Record lookup: outcome of this test for `COc1cc2ncnc(Nc3cccc(Cl)c3)c2cc1OC` ?
Result: y

Ask: Record lookup: outcome of this test for `O=Cc1ccc(F)cc1` ?
Result: n

Ask: Record lookup: outcome of this test for `C=C(C)C(=O)NCCCN(C)C` ?
Result: n

Ask: Record lookup: outcome of this test for `NCCOCCO` ?
Result: y

* * *

- Assay Method Text: BSK_LPS_SRB: Viability Assessment in the BioMAP Diversity Plus: LPS Assay (AID 2283079);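 note: total protein by sulforhodamine B absorbance as a cytotoxicity measure; measured one day after compound addition; fitted in both directions against DMSO so loss or gain of signal counts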
- Measurement Conditions: primary human HUVEC with PBMC
Activity calls are given as the source filed them. The calls were made as follows: active = hit-call score of the fitted dose curve at least 0.9, where 1 is the maximum; inactive = score below 0.9.
// allowed return values: active, inactive

Please review the following examples before continuing.
[[record]]
molecule = "CNC[C@H](O)c1cccc(O)c1"
discrete_label = "inactive"

[[record]]
molecule = "Cc1cc(C2(c3cc(C)c(O)cc3C)OS(=O)(=O)c3ccccc32)c(C)cc1O"
discrete_label = "inactive"

[[record]]
molecule = "O=C1OC2(c3cc(Br)c(O)c(Br)c3Oc3c2cc(Br)c(O)c3Br)c2c(Cl)c(Cl)c(Cl)c(Cl)c21"
discrete_label = "active"

[[record]]
molecule = "CC(=O)[C@H]1CC[C@H]2[C@@H]3CC=C4C[C@@H](O)CC[C@]4(C)[C@H]3CC[C@]12C"
discrete_label = "inactive"


Ask: Record lookup: outcome of this test for `CC(C)Oc1ccccc1O` ?
Result: inactive

Ask: Record lookup: outcome of this test for `C[C@H]1C[C@@H]2[C@H]([C@@H](O)C[C@@]3(C)[C@H]2CC[C@]3(O)C(=O)CO)[C@@]2(C)C=CC(=O)C=C12` ?
Result: inactive

Ask: Record lookup: outcome of this test for `CCC(=O)OCc1ccccc1` ?
Result: inactive

Ask: Record lookup: outcome of this test for `O=[N+]([O-])c1cc(C(F)(F)F)ccc1Cl` ?
Result: inactive

Ask: Record lookup: outcome of this test for `C=C[Si](OCC)(OCC)OCC` ?
Result: inactive
